- protocolText: Selectivity ratio of Ki for sigma 1 receptor in guinea pig brain cortex membranes to Ki for DAT in Sprague-Dawley rat striatum membranes
- Format: cell membranes
Entries annotated with measured Ratio Ki
// return a plain number; no unit text

Example entries begin here.
Entry CC(C)(C)C(=O)N1CCC(NCC[S+]([O-])C(c2ccc(F)cc2)c2ccc(F)cc2)CC1 (centres undefined) : reported Ratio Ki = ?
1.1

Entry CN(CCSC(c1ccc(F)cc1)c1ccc(F)cc1)C1CCN(C(=O)c2ccccc2F)CC1 : reported Ratio Ki = ?
0.03

Entry CC(C)N(CCSC(c1ccc(F)cc1)c1ccc(F)cc1)C1CCN(C(=O)c2ccccc2F)CC1 : reported Ratio Ki = ?
0.08

Continuing:
Entry Fc1ccc(CNC2CCN(CCSC(c3ccc(F)cc3)c3ccc(F)cc3)CC2)cc1 : reported Ratio Ki = ?
0.74

Entry O=C(c1ccccc1F)N1CCC(NCC[S+]([O-])C(c2ccc(F)cc2)c2ccc(F)cc2)CC1 (centres undefined) : reported Ratio Ki = ?
2.16

Entry Fc1ccc(C(SCCNC2CCN(Cc3cc4ccccc4o3)CC2)c2ccc(F)cc2)cc1 : reported Ratio Ki = ?
1.71

Entry CN(CCSC(c1ccc(F)cc1)c1ccc(F)cc1)C1CCN(C(=O)c2ccc(F)cc2)CC1 : reported Ratio Ki = ?
0.04

Entry Fc1ccc(C(SCCN2CCC(NCc3ccc(Cl)cc3)CC2)c2ccc(F)cc2)cc1 : reported Ratio Ki = ?
0.72

====

- assayedSystem: Sigma non-opioid intracellular receptor 1 (Cavia porcellus, UniProt Q60492)
- Sequence (Q60492 whole entry): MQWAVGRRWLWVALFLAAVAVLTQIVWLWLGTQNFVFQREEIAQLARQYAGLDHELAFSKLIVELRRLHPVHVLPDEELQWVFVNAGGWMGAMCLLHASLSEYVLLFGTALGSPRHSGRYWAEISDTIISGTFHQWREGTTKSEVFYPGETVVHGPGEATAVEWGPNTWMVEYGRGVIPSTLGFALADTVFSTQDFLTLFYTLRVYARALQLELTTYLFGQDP
- protocolText: Displacement of [3H](+)-pentazocine from sigma 1 receptor in guinea pig brain cortex membranes after 120 mins by scintillation counting analysis
Entries annotated with measured pKi
As a rule, pKi stands for the negative log10 of the concentration, concentration in M.

Entry O=C(c1ccc(F)cc1)N1CCC(NCC[S+]([O-])C(c2ccc(F)cc2)c2ccc(F)cc2)CC1 (stereo not drawn) : reported pKi = ?
5.84

Entry O=C(c1ccc(F)cc1F)N1CCC(NCC[S+]([O-])C(c2ccc(F)cc2)c2ccc(F)cc2)CC1 (stereo not drawn) : reported pKi = ?
6.77

Entry CN(CCSC(c1ccc(F)cc1)c1ccc(F)cc1)C1CCN(C(=O)c2ccc(F)cc2)CC1 : reported pKi = ?
8.15

Entry [O-][S+](CCNC1CCN(Cc2ccc(F)cc2)CC1)C(c1ccc(F)cc1)c1ccc(F)cc1 (stereo not drawn) : reported pKi = ?
7.58

Entry CC(O)CN1CCN(CC[S+]([O-])C(c2ccc(F)cc2)c2ccc(F)cc2)CC1 (stereo not drawn) : reported pKi = ?
6.34

Continuing:
Entry CC(C)(C)C(=O)N1CCC(NCCSC(c2ccc(F)cc2)c2ccc(F)cc2)CC1 : reported pKi = ?
6.79

Entry [O-][S+](CCN1CCN(CC(O)Cc2ccccc2)CC1)C(c1ccc(F)cc1)c1ccc(F)cc1 (stereo not drawn) : reported pKi = ?
7.38

Entry Fc1ccc(C(SCCNC2CCN(Cc3ccccc3)CC2)c2ccc(F)cc2)cc1 : reported pKi = ?
8.42

====

- assayedSystem: Sigma non-opioid intracellular receptor 1 (Cavia porcellus, UniProt Q60492)
- protocolText: Displacement of [3H](+)-pentazocine from sigma 1 receptor in guinea pig brain cortex membranes after 120 mins by scintillation counting analysis
pKi: −log10 of the molar value.
Record YES whenever pKi is at 7 or higher; record NO when lower.

Tell me whether pKi is at least 7 here: Fc1ccc(CNC2CCN(CCSC(c3ccc(F)cc3)c3ccc(F)cc3)CC2)cc1
YES

Tell me whether pKi is at least 7 here: CN(CC[S+]([O-])C(c1ccc(F)cc1)c1ccc(F)cc1)C1CCN(C(=O)c2ccccc2F)CC1 (centres undefined)
NO

Continuing:
Tell me whether pKi is at least 7 here: Fc1ccc(C(SCCNC2CCN(CCc3ccccc3)CC2)c2ccc(F)cc2)cc1
YES

Tell me whether pKi is at least 7 here: CC(O)CN1CCN(CCSC(c2ccc(F)cc2)c2ccc(F)cc2)CC1 (centres undefined)
YES

Tell me whether pKi is at least 7 here: O=C(c1ccccc1)N1CCC(NCCSC(c2ccc(F)cc2)c2ccc(F)cc2)CC1
YES

====

- Organism: Rattus norvegicus
- protocolText: Selectivity ratio of Ki for SERT in Sprague-Dawley rat midbrain membranes to Ki for DAT in Sprague-Dawley rat striatum membranes
reportedProperty: Ratio Ki
// return a plain number; no unit text

Entry Fc1ccc(C(SCCNC2CCN(CCc3ccccc3)CC2)c2ccc(F)cc2)cc1 : reported Ratio Ki = ?
4.57

Entry O=C(c1ccc(F)cc1)N1CCC(NCCSC(c2ccc(F)cc2)c2ccc(F)cc2)CC1 : reported Ratio Ki = ?
69.5

Continuing:
Entry CC(C)(C)C(=O)N1CCC(NCC[S+]([O-])C(c2ccc(F)cc2)c2ccc(F)cc2)CC1 (stereo not drawn) : reported Ratio Ki = ?
3.14

====

- assayedSystem: Sigma non-opioid intracellular receptor 1 (Cavia porcellus, UniProt Q60492)
- protocolText: Displacement of [3H](+)-pentazocine from sigma 1 receptor in guinea pig brain cortex membranes after 120 mins by scintillation counting analysis
Entries annotated with measured Ki
Answer in µM, number only, no unit symbol.

Entry O=C(c1ccccc1F)N1CCC(NCC[S+]([O-])C(c2ccc(F)cc2)c2ccc(F)cc2)CC1 (stereo not given) : reported Ki = ?
1.31

Entry O=C(c1ccc(F)cc1F)N1CCC(NCCSC(c2ccc(F)cc2)c2ccc(F)cc2)CC1 : reported Ki = ?
0.0206

The record that follows has no Ki shown yet.
Entry CC(C)N(CCSC(c1ccc(F)cc1)c1ccc(F)cc1)C1CCN(C(=O)c2ccccc2F)CC1 : reported Ki = ?
0.126

====

- Species on record: Rattus norvegicus
- protocolText: Selectivity ratio of Ki for SERT in Sprague-Dawley rat midbrain membranes to Ki for DAT in Sprague-Dawley rat striatum membranes
reportedProperty: Ratio Ki
// return a plain number; no unit text

Example entries begin here.
Entry [O-][S+](CCNC1CCN(CC(O)Cc2ccccc2)CC1)C(c1ccc(F)cc1)c1ccc(F)cc1 (centres undefined) : reported Ratio Ki = ?
6.53

Entry O=C(c1ccc(F)cc1)N1CCC(NCC[S+]([O-])C(c2ccc(F)cc2)c2ccc(F)cc2)CC1 (centres undefined) : reported Ratio Ki = ?
60.1

Entry CC(C)N(CCSC(c1ccc(F)cc1)c1ccc(F)cc1)C1CCN(C(=O)c2ccccc2F)CC1 : reported Ratio Ki = ?
10.7

Entry NC(=O)C[S@@+]([O-])C(c1ccc(F)cc1)c1ccc(F)cc1 : reported Ratio Ki = ?
8.05

The record that follows has no Ratio Ki shown yet.
Entry O=C(c1ccccc1F)N1CCC(NCC[S+]([O-])C(c2ccc(F)cc2)c2ccc(F)cc2)CC1 (centres undefined) : reported Ratio Ki = ?
23.5

====

pKi tested on Sodium-dependent serotonin transporter (Rattus norvegicus, UniProt P31652): recorded values
Sequence (P31652 whole entry): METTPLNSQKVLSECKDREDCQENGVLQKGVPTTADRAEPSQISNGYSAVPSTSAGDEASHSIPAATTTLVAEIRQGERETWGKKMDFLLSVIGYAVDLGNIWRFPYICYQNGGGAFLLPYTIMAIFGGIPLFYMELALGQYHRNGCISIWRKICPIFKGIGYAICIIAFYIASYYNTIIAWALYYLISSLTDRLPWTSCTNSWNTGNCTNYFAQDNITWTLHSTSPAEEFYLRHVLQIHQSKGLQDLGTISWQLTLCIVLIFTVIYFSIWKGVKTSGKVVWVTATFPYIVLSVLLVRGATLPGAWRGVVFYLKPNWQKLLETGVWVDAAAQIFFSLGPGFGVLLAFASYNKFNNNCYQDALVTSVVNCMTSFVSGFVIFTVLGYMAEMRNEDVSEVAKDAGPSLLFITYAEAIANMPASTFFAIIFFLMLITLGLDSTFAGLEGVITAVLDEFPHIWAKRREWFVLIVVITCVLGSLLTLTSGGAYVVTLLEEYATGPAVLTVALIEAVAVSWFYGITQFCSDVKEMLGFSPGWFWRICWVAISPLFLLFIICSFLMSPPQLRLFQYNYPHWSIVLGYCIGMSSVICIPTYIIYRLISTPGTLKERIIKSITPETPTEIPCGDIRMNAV
As a rule, pKi stands for the negative log10 of the concentration, concentration in M.

Example entries begin here.
Entry O=C(c1ccc(F)cc1F)N1CCC(NCCSC(c2ccc(F)cc2)c2ccc(F)cc2)CC1 : reported pKi = ?
6.53

Entry CC(C)N(CCSC(c1ccc(F)cc1)c1ccc(F)cc1)C1CCN(C(=O)c2ccccc2F)CC1 : reported pKi = ?
4.79

Entry NC(=O)C[S@+]([O-])C(c1ccc(F)cc1)c1ccc(F)cc1 : reported pKi = ?
4.82

Entry [O-][S+](CCN1CCN(CC(O)Cc2ccccc2)CC1)C(c1ccc(F)cc1)c1ccc(F)cc1 (stereo unspecified) : reported pKi = ?
4.90

Entry CN(CCSC(c1ccc(F)cc1)c1ccc(F)cc1)C1CCN(C(=O)c2ccc(F)cc2)CC1 : reported pKi = ?
5.61

Entry CC(O)CN1CCN(CC[S+]([O-])C(c2ccc(F)cc2)c2ccc(F)cc2)CC1 (stereo unspecified) : reported pKi = ?
4.01

Continuing:
Entry O=C(c1ccccc1F)N1CCC(NCC[S+]([O-])C(c2ccc(F)cc2)c2ccc(F)cc2)CC1 (stereo unspecified) : reported pKi = ?
4.85

Entry O=C(c1ccccc1)N1CCC(NCCSC(c2ccc(F)cc2)c2ccc(F)cc2)CC1 : reported pKi = ?
6.55

Entry NC(=O)C[S@@+]([O-])C(c1ccc(F)cc1)c1ccc(F)cc1 : reported pKi = ?
4.41

Entry CN(CCSC(c1ccc(F)cc1)c1ccc(F)cc1)C1CCN(C(=O)c2ccccc2F)CC1 : reported pKi = ?
6.00

Entry CC(O)CN1CCN(CCSC(c2ccc(F)cc2)c2ccc(F)cc2)CC1 (stereo unspecified) : reported pKi = ?
5.17

Entry O=C(c1ccc(F)cc1F)N1CCC(NCC[S+]([O-])C(c2ccc(F)cc2)c2ccc(F)cc2)CC1 (stereo unspecified) : reported pKi = ?
5.34

Entry NC(=O)C[S+]([O-])C(c1ccc(F)cc1)c1ccc(F)cc1 (racemic) : reported pKi = ?
4.31

Entry O=C(c1ccccc1F)N1CCC(NCCSC(c2ccc(F)cc2)c2ccc(F)cc2)CC1 : reported pKi = ?
6.45

Entry CN(CC[S+]([O-])C(c1ccc(F)cc1)c1ccc(F)cc1)C1CCN(C(=O)c2ccccc2F)CC1 (stereo unspecified) : reported pKi = ?
3.60

Entry Fc1ccc(C(SCCNC2CCN(Cc3cc4ccccc4o3)CC2)c2ccc(F)cc2)cc1 : reported pKi = ?
6.16
